# test-details: qHTS assay for small molecule activators of the heat shock response signaling pathway (AID 743210);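 note: HeLa cells with beta-lactamase reporter driven by heat shock elements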
# measurement-context: HeLa HSE-bla reporter, beta-lactamase ratio, 5 h; series mostly up to 62.6 µM
Records with an inconclusive call do not appear. Calls of active or inactive are those of the source. Calls come from the whole dose curve; as a rule, active = well fitted activation curve with a large enough effect in the signal ratio in the repeat runs, with a control signal flat (not every such curve was filed as active); inconclusive = weak or mixed curves; inactive = flat fitted curve, though single readings scatter; the % refers to the signal ratio.
value-kind: activation

[
  {
    "compound": "NCC1CCC(C(=O)Oc2ccc(CCC(=O)O)cc2)CC1 (stereo not given)",
    "result": "inactive"
  },
  {
    "compound": "CCC(C)(C)C",
    "result": "inactive"
  },
  {
    "compound": "O=C1CCCc2c(O)cccc21",
    "result": "inactive"
  },
  {
    "compound": "CC(O)CCCCn1c(=O)c2c(ncn2C)n(C)c1=O (stereo not given)",
    "result": "inactive"
  },
  {
    "compound": "COc1cnc(NS(=O)(=O)c2ccc(N)cc2)nc1",
    "result": "inactive"
  },
  {
    "compound": "Cc1cc(C)c(N)c(Cl)c1",
    "result": "inactive"
  },
  {
    "compound": "CO/N=C(\\C(=O)O)c1csc(NC(=O)CCl)n1",
    "result": "inactive"
  },
  {
    "compound": "CC(=O)c1ccc(O)c(C(N)=O)c1",
    "result": "inactive"
  }
]

# activation lookup, item COc1cc(NS(=O)(=O)c2ccc(N)cc2)ncn1 inactive

Repeat with CCCCN1C(=O)c2ccccc2C1=O inactive

// repeat for N#Cc1cc(NC(=O)C(=O)O)c(Cl)c(NC(=O)C(=O)O)c1 and report inactive

Another compound: O=C(OOC(=O)c1ccccc1)c1ccccc1 inactive

###

# system-tested: Nuclear receptor subfamily 1 group I member 2 (Homo sapiens) (UniProt O75469)
# Sequence (O75469 whole entry, looked up): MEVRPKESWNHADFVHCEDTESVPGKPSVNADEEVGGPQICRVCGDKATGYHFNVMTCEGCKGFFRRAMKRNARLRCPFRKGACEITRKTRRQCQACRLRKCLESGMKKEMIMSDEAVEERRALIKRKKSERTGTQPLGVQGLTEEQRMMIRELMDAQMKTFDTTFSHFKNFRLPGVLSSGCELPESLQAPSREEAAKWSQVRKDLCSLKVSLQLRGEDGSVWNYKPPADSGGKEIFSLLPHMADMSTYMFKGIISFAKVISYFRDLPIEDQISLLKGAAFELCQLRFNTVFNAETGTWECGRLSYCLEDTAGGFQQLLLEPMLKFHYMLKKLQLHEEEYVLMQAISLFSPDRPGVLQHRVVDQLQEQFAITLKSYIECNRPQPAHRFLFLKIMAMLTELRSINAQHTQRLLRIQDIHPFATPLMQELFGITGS
# test-details: Human pregnane X receptor (PXR) small molecule agonists, qHTS assay (AID 1346982); note: nearly all actives have a fitted effect of over 35% in size
# measurement-context: PXR-Luc HepG2, CYP3A4 luciferase reporter, 24 h; series mostly up to 92.4 µM
Results filed as inconclusive are left out. Calls of active or inactive are those of the source. Calls come from the whole dose curve; as a rule, active = well fitted activation curve with a large enough effect in the repeat runs; inconclusive = weak or mixed curves; inactive = no such curve, though single readings can be large or run the other way.
Outcome field: choose from Yes = active, No = inactive

Check the results log: what was the call for C=CC(=O)CC ? No

Next molecule up: COc1cc(OC)cc(OC)c1 No

And the next one, CC/C=C\CCOC(=O)c1ccccc1 ? No

Let us now turn to CCCC(C)C(O)CC (configuration not stated) No

And for COC(=O)c1ccc(C(=O)O)cc1 ? No

Similarly, COc1cc(C(=O)NC2CCCNC2)cc(OC)c1OC (configuration not stated) ? No

Ok, now O=C(O)Cc1c(Cl)ccc(Cl)c1Cl No

Cool, now CNC(=O)c1c(I)c(NC(C)=O)c(I)c(C(=O)O)c1I No

Proceed to CC(C)CC(O)Cc1ccccc1 (configuration not stated) No

Also, COc1ccc(Cl)cc1C please. No

Now the molecule O=Cc1ccc(C(=O)O)cc1 No

Same again, this time with CCCCCCCCCCCCCC(=O)OCC No

And the next one, CCCCOCCCC ? No

Do the same for CC(=O)Nc1ccc(S(=O)(=O)Nc2cc(C)on2)cc1 please No

Okay, and Cc1ccccc1C#N ? No

Lookup NNC(=O)OCc1ccccc1 Yes

Another: CCCCCCCCCCCC(C)=O No

Then this molecule: CO/N=C(\C(=O)O)c1csc(NC(=O)CCl)n1 No

Try this molecule too: CC(C)C[P+](C)(CC(C)C)CC(C)C No

Quick one: O=C1c2ccccc2C(=O)N1CO No

Likewise for Cc1ccc(OC(=O)CC(C)C)cc1 ? No

Same again, this time with Cc1ccc(N)nc1 No

Next record, please: CN1CCN(C(=O)C2CCCCC2)CC1 No

Now consider NCC1CCC(C(=O)Oc2ccc(CCC(=O)O)cc2)CC1 (configuration not stated) and answer again. No

Now consider CC(C)=CCC/C(C)=C\C#N and answer again. No

Same question, C=CCON/C(CCC)=C1\C(=O)CC(C)(C)C(C(=O)OC)=C1O this time No

What do you get for CCCCC(CC)CCC(CC(C)C)OS(=O)(=O)O (configuration not stated) ? No

Request: CCCCCCC(=O)c1ccccc1 No

Item: NS(=O)(=O)c1cc2c(cc1C(F)(F)F)NCNS2(=O)=O No

Same question for O=Cc1ccccc1S(=O)(=O)O please. No

Try the molecule CCCc1ncc(C(=O)O)s1 No

Now the same for CCOC(=O)c1ccc(N(C)C)cc1 Yes
